assay: self-splicing fitness, log relative to wild type (ln ratio); higher = more splicing; Tetrahymena group I intron in knt gene, E. coli kanamycin selection, DiMSum; sequences stand for … in CUCUCU…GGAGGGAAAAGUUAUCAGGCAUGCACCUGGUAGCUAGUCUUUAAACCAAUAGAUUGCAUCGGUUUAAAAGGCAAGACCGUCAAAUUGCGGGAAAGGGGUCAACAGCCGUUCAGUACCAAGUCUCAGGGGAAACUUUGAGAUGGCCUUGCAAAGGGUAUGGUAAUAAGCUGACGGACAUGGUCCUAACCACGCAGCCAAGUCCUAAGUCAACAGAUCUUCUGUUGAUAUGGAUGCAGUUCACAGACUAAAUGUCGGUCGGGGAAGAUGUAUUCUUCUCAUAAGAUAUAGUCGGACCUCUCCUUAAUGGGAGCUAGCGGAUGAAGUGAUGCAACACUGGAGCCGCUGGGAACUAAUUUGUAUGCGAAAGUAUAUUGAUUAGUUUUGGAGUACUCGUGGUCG; settings: 37 °C;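 further: selection with 25 µg/mL kanamycin versus none on LB agar overnight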
Classification field: Condition met = self-splicing fitness (ln) at or over -1; Condition not met = self-splicing fitness (ln) under -1.

Request: Quick check: does CUCCAGCAAUAUUACGUCAG have self-splicing fitness (ln) greater than or equal to -1?
Result: Condition met

Request: Then what about the sequence GGGAAGCAAUAUUACGUCUA ?
Result: Condition met

Request: Then what about the sequence UACGAGCAAUAUUACGCGUA ?
Result: Condition not met

Request: Then what about the sequence GUGUAGCAAUAUUACGGUUC ?
Result: Condition met

Request: Then what about the sequence UAUUAGCAAUAUUACGUGGG ?
Result: Condition not met

Request: Then what about the sequence ACUUAGCAAUAUUACGGCGG ?
Result: Condition met

Request: Then what about the sequence CCGCAGCAAUAUUACGUCUC ?
Result: Condition not met

Request: Then what about the sequence CUAUAGCAAUAUUACGCUGU ?
Result: Condition not met

Request: Then what about the sequence ACACAGCAAUAUUACGCACU ?
Result: Condition met

Request: Then what about the sequence GGUAAGCAAUAUUACGUUUU ?
Result: Condition met

Request: Then what about the sequence GAUAAGCAAUAUUACGUGCU ?
Result: Condition not met

Request: Then what about the sequence UCGAAGCAAUAUUACGUUUA ?
Result: Condition met

Request: Then what about the sequence ACCAAGCAAUAUUACGUAGA ?
Result: Condition not met

Request: Then what about the sequence AUGCAGCAAUAUUACGUGGU ?
Result: Condition not met

Request: Then what about the sequence GGAAAGCAAUAUUACGAUGG ?
Result: Condition not met

Request: Then what about the sequence GUGCAGCAAUAUUACGGUAU ?
Result: Condition not met

Request: Then what about the sequence UGGAAGCAAUAUUACGUGUC ?
Result: Condition not met

Request: Then what about the sequence UGGCAGCAAUAUUACGCAAC ?
Result: Condition not met

Request: Then what about the sequence AGCGAGCAAUAUUACGGCAC ?
Result: Condition met

Request: Then what about the sequence ACACAGCAAUAUUACGCAUC ?
Result: Condition met

Request: Then what about the sequence CAUAAGCAAUAUUACGACUC ?
Result: Condition met

Request: Then what about the sequence UUAUAGCAAUAUUACGACUU ?
Result: Condition met

Request: Then what about the sequence ACGAAGCAAUAUUACGUGCU ?
Result: Condition not met

Request: Then what about the sequence GACGAGCAAUAUUACGUCCC ?
Result: Condition met

Request: Then what about the sequence AGAGAGCAAUAUUACGUUAA ?
Result: Condition not met

Request: Then what about the sequence GCAGAGCAAUAUUACGUUAU ?
Result: Condition not met

Request: Then what about the sequence UUUCAGCAAUAUUACGGGAA ?
Result: Condition not met

Request: Then what about the sequence GGGGAGCAAUAUUACGUAUC ?
Result: Condition not met

Request: Then what about the sequence CGAAAGCAAUAUUACGUGUC ?
Result: Condition not met

Request: Then what about the sequence CGGAAGCAAUAUUACGGCGU ?
Result: Condition not met

Request: Then what about the sequence CCAUAGCAAUAUUACGUGCC ?
Result: Condition not met

Request: Then what about the sequence CCCUAGCAAUAUUACGUGCC ?
Result: Condition not met

###

test: self-splicing fitness, log relative to wild type (ln ratio); higher = more splicing; Tetrahymena group I intron in knt gene, E. coli kanamycin selection, DiMSum; sequences stand for … in CUCUCU…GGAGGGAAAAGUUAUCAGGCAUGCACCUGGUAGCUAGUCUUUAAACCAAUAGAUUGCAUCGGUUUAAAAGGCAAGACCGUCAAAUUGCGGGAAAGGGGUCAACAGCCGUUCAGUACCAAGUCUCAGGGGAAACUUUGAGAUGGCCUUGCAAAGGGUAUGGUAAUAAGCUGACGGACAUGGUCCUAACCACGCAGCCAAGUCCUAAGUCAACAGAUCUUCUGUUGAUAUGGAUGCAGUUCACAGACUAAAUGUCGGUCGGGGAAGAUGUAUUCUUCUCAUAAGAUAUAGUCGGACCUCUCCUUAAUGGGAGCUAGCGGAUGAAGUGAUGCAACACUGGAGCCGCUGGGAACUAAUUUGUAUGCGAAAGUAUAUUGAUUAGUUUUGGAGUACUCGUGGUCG; conditions: 30 °C
Classification field: Yes = self-splicing fitness (ln) at or over -3; No = self-splicing fitness (ln) under -3.

Request: Quick check: does GAGAAGCAAUAUUACGUAAG have self-splicing fitness (ln) greater than or equal to -3?
Result: Yes

Request: Then what about the sequence CUGUAGCAAUAUUACGCACA ?
Result: Yes

Request: Then what about the sequence GAUAAGCAAUAUUACGUAUC ?
Result: No

Request: Then what about the sequence AAAUAGCAAUAUUACGCUAG ?
Result: Yes

Request: Then what about the sequence GCGCAGCAAUAUUACGCAUC ?
Result: Yes

Request: Then what about the sequence AGUGAGCAAUAUUACGUCGA ?
Result: No

Request: Then what about the sequence AUAGAGCAAUAUUACGCAUA ?
Result: Yes

Request: Then what about the sequence CCAUAGCAAUAUUACGAGAC ?
Result: No

Request: Then what about the sequence CUCCAGCAAUAUUACGCGAG ?
Result: Yes

Request: Then what about the sequence UGGAAGCAAUAUUACGCCAC ?
Result: Yes

Request: Then what about the sequence UAGAAGCAAUAUUACGGCGA ?
Result: Yes

Request: Then what about the sequence GACUAGCAAUAUUACGUCGC ?
Result: No

Request: Then what about the sequence UGCUAGCAAUAUUACGGCUA ?
Result: Yes

Request: Then what about the sequence UCGCAGCAAUAUUACGAACC ?
Result: No

Request: Then what about the sequence UUCCAGCAAUAUUACGUUUU ?
Result: No

###

assay: self-splicing fitness, log relative to wild type (ln ratio); higher = more splicing; Tetrahymena group I intron in knt gene, E. coli kanamycin selection, DiMSum; sequences stand for … in CUCUCU…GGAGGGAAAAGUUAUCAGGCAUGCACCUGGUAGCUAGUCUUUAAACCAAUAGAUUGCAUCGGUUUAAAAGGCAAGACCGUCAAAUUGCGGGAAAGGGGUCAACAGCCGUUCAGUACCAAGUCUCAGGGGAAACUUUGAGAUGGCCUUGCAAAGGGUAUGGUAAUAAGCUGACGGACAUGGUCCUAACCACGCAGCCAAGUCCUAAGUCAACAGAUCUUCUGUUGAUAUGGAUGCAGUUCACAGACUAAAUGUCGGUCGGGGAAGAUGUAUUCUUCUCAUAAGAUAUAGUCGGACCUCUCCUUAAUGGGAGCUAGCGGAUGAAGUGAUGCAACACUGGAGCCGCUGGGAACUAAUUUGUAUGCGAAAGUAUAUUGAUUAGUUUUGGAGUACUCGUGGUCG; conditions: 37 °C
READOUT: self-splicing fitness (ln)
Write no unit; give the number alone.

Request: Quick one: self-splicing fitness (ln) of UGUGAGCAAUAUUACGAACU ?
Result: 0.203

Request: Then what about the sequence CAGCAGCAAUAUUACGAUCC ?
Result: -2.73

Request: Then what about the sequence GGAUAGCAAUAUUACGCGUA ?
Result: -2.02

Request: Then what about the sequence AACCAGCAAUAUUACGACCC ?
Result: 0.421

Request: Then what about the sequence GUCAAGCAAUAUUACGUAAU ?
Result: -0.385

Request: Then what about the sequence GAGAAGCAAUAUUACGGUCC ?
Result: -1.06

Request: Then what about the sequence GAUAAGCAAUAUUACGAGGC ?
Result: -2.76

Request: Then what about the sequence GGAUAGCAAUAUUACGAUUG ?
Result: -1.44

Request: Then what about the sequence UCCGAGCAAUAUUACGGUAU ?
Result: -2.41

Request: Then what about the sequence CGAUAGCAAUAUUACGGCAU ?
Result: -2.54

Request: Then what about the sequence CAAAAGCAAUAUUACGCAGG ?
Result: -1.24

Request: Then what about the sequence ACUAAGCAAUAUUACGUUAU ?
Result: -1.55

Request: Then what about the sequence GAUAAGCAAUAUUACGAGUU ?
Result: -1.27

Request: Then what about the sequence UCCCAGCAAUAUUACGUUGG ?
Result: -1.5

Request: Then what about the sequence UCUGAGCAAUAUUACGCGUC ?
Result: -2.49

Request: Then what about the sequence CAUGAGCAAUAUUACGAAGA ?
Result: -2.3

Request: Then what about the sequence CACCAGCAAUAUUACGCACA ?
Result: -0.504

Request: Then what about the sequence UUAGAGCAAUAUUACGGCCA ?
Result: 0.756

Request: Then what about the sequence AGAAAGCAAUAUUACGGAUC ?
Result: -0.656

Request: Then what about the sequence UGCAAGCAAUAUUACGCGUG ?
Result: -3.15

Request: Then what about the sequence GGUCAGCAAUAUUACGCGAG ?
Result: -0.499

Request: Then what about the sequence UUACAGCAAUAUUACGCAUC ?
Result: -1.6

Request: Then what about the sequence GAAAAGCAAUAUUACGCGAU ?
Result: -2.32

Request: Then what about the sequence UGUAAGCAAUAUUACGAGCG ?
Result: 0.758

Request: Then what about the sequence CCCCAGCAAUAUUACGCGGU ?
Result: -2.17

Request: Then what about the sequence GCGAAGCAAUAUUACGGACU ?
Result: 0.296

Request: Then what about the sequence UUAUAGCAAUAUUACGCUAU ?
Result: -4.04

Request: Then what about the sequence CAAGAGCAAUAUUACGCGAU ?
Result: -2.51

Request: Then what about the sequence GGUUAGCAAUAUUACGACUA ?
Result: 0.423

Request: Then what about the sequence GAAGAGCAAUAUUACGGGGC ?
Result: -2.28

Request: Then what about the sequence GUAAAGCAAUAUUACGGAUG ?
Result: -0.613

Request: Then what about the sequence CGCAAGCAAUAUUACGUCGC ?
Result: -3.19

Request: Then what about the sequence CGCAAGCAAUAUUACGUGGU ?
Result: -3.22

Request: Then what about the sequence AAAAAGCAAUAUUACGACUG ?
Result: -0.0274
